Assignment: determine reported growth for the given molecules.
Tested on: SN12C renal
test_name: NCI-60 one-dose screen, 48 h (100 = growth as untreated, 0 = no growth, -100 = all killed)
assay_context: 10 µM unless noted
Protocol: Growth inhibition of the SN12C human tumor cell line is measured as a screen for anti-cancer activity. Cells are grown in 96 well plates and exposed to the test compound for 48 hours. Compounds are tested at a single concentration, which is 10^-5 M for most compounds. The reported endpoint is percent growth (GI% or GIPRCNT), where numbers from 0 - 100% represent growth inhibition, and numbers from -100% - 0 represent cell death. For example, a value of 40 represents 60% growth inhibition. […]
This is part of a sample that, as a whole, favours compounds with a hit. Of some 83,000 tested, about 20% had one in any assay.
Quick reminder: number only, in %, skip the unit.

Item: COc1ccc(C2=CC(c3ccc(OC)cc3Br)N3C=CSC3=N2)cc1 (stereo not given) | growth: 57.6

Item: O=C(/C=C/c1ccccc1)n1c(-c2ccccc2)nc2ccccc21 | growth: 101

Item: CN1CCN(Cc2ccc(NC(=O)c3cncc(C#Cc4ccc(N)nc4)c3)cc2C(F)(F)F)CC1 | growth: 4.16

Item: COc1cc(Cn2c(-c3ccccc3)cc3c2-c2oncc2CC3)cc(OC)c1OC | growth: 49.3

Item: C#CC[C@@H]1C[C@]2(C)[C@H]3CC[C@@H]4[C@H]5C(C(=C)C)CC[C@]5(C(=O)NCCCCN)CC[C@@]4(C)[C@]3(C)CC[C@H]2C(C)(C)[C@H]1OC(C)=O (stereo not given in full) | growth: -82.9

Item: CCCCCCCCCCC(C(O)c1ccccc1)N1CCCCC1 (stereo not given) | growth: 43.2

Item: NC(=O)c1noc(C(=O)c2ccccc2)c1N | growth: 99.7

Item: CCOC(=O)c1ccc(NCCC(=O)O)cc1 | growth: 108

Item: CC1(C)C2CCC(O)(C(=O)O)C1C2 (stereo not given) | growth: 104

Item: O=C(Nc1ccc2ncnc(Nc3ccc(F)c(Cl)c3)c2c1)c1cccs1 | growth: 45.6

====

Tested on: CCRF-CEM leukemia
test_name: NCI-60 one-dose screen, 48 h
assay_context: 10 µM unless noted
The panel holds about 83,000 compounds, 20% with a hit somewhere; the sample as a whole holds those more often. Activity calls are given as the source filed them. Rule for the calls: active = growth percent below 10; inactive = the rest.
Your reply should match one of these outcome classes. active, inactive

Q) Call for entry O=C(O)/C=C(\c1nc2ccc([N+](=O)[O-])cc2[nH]1)c1cc(Cl)ccc1O :
A) active

Q) Call for entry C/C=C(\C)C(C(=O)NC1CCCCC1)N(C(=O)C1CCc2cc(F)ccc2O1)c1ccc([N+](=O)[O-])cc1 (stereo not drawn) :
A) inactive

Q) Call for entry C#CC[C@@H]1C[C@]2(C)[C@H]3CC[C@@H]4[C@H]5C(C(=C)C)CC[C@]5(C(=O)NCCCCCCCCN)CC[C@@]4(C)[C@]3(C)CC[C@H]2C(C)(C)[C@H]1OC(C)=O (stereo partly drawn) :
A) active

Q) Call for entry COc1ccc([C@@H]2[C@@H](Oc3ccccc3)C(=O)N2c2cc(OC)c(OC)c(OC)c2)cc1F :
A) active

Q) Call for entry COc1ccc(NC(=O)C2c3ccccc3C(=O)N(CC(C)C)C2c2cccs2)cc1 (stereo not drawn) :
A) inactive

Q) Call for entry CCCCC(CCc1ccccn1)C(=O)c1ccccc1 (stereo not drawn) :
A) inactive

Q) Call for entry C#CC[C@@H]1C[C@]2(C)[C@H]3CC=C4[C@H]5[C@@H](C)[C@H](C)CC[C@]5(C(=O)NCCCCN)CC[C@@]4(C)[C@]3(C)CC[C@H]2C(C)(C)[C@H]1OC(C)=O :
A) inactive

Q) Call for entry C=C(C)C1CCC2(C(=O)O)CCC3(C)C(CCC4C5(C)CCC(O)C(C)(C)C5CCC43C)C12 (stereo not drawn) :
A) active

Q) Call for entry C/C(CC(=O)NNc1ccc([N+](=O)[O-])cc1)=N\Nc1ccc([N+](=O)[O-])cc1 :
A) inactive

Q) Call for entry C#CC[C@@H]1C[C@]2(C)[C@H]3CC[C@@H]4[C@H]5C(C(=C)C)CC[C@]5(C(=O)NCCN(CCN)CCN)CC[C@@]4(C)[C@]3(C)CC[C@H]2C(C)(C)[C@H]1OC(C)=O (stereo partly drawn) :
A) inactive

Q) Call for entry O=C(NCC(c1ccsc1)N1CCCCCC1)c1ccc(C(F)(F)F)cc1 (stereo not drawn) :
A) inactive

Q) Call for entry CC(C)N=C1CCCC1C(=S)SSC(=S)C1CCCC1=NC(C)C (stereo not drawn) :
A) inactive

Q) Call for entry COc1ccccc1NC(=O)OCC12COCN1COC2 :
A) inactive

Q) Call for entry Cc1ccc(NC(=O)c2nc(S(C)=O)oc2-c2ccc(F)cc2)cc1Nc1nccc(-c2cccnc2)n1 (stereo not drawn) :
A) active

Q) Call for entry O=C(O)c1cn(-c2ccccc2)nc1-c1ccc(O)cc1 :
A) inactive

Q) Call for entry CCCCn1c(C)nc2ccc(Nc3nc(Cl)nc4nc[nH]c34)cc21 :
A) inactive

Q) Call for entry CCN(C)CCCOc1ccc(/C(=C(\C)Cc2cccc(OC)c2)c2ccc(OC(C)=O)cc2)cc1 :
A) inactive

Q) Call for entry Cc1cc(C)cc(NC(=O)Cn2nncc2CN2C(=O)CSC2=O)c1 :
A) inactive

Q) Call for entry COc1ccc(C2C3=C(COC3=O)N(CCO)c3cc(OC)c(OC)cc32)cc1 (stereo not drawn) :
A) inactive

Q) Call for entry COc1ccc2[nH]c(O)c(/C=c3/ccc4c(c3)N=C(c3ccc(F)cc3)N=4)c2c1 :
A) inactive

Q) Call for entry O=c1[nH]cnc2nc[nH]c12 :
A) inactive

Q) Call for entry CC(=O)c1nn(-c2ccccc2)/c(=N\N=C\c2coc3ccc(F)cc3c2=O)s1 :
A) inactive

Q) Call for entry COc1cc(/C=C2\C(=O)Nc3ccc(N(C)C)cc32)cc(OC)c1OC :
A) inactive

Q) Call for entry C=CCn1c(SCC(=O)Nc2ccc(C(=O)/C=C/c3ccccc3)cc2)nnc1-c1ccc(OC)c(OC)c1 :
A) inactive

Q) Call for entry CNC(=O)c1cc(Oc2ccc(NC(=O)c3[nH]c(SC)nc3-c3ccc(F)cc3)cc2)ccn1 :
A) inactive

Q) Call for entry CCOC(CN1CCN(CC(C)C(=O)c2ccccc2)CC1)c1ccccc1 (stereo not drawn) :
A) inactive

Q) Call for entry O=C1OC(c2ccc(-c3ccccc3)cc2)=C/C1=C/c1c(Cl)cccc1Cl :
A) active

Q) Call for entry FC(F)(F)C1=NNC(c2ccc3ccccc3c2)=NN1 :
A) inactive

Q) Call for entry CSCCC1NC(=O)C(C(C)=Nc2ccccc2)=C1O (stereo not drawn) :
A) inactive

Q) Call for entry CCN(CC)Cc1cc(Nc2ccnc3cc(Cl)ccc23)cc(-c2ccc(Cl)cc2)c1O :
A) inactive

Q) Call for entry CCCN(CCC)CC(O)COc1ccccc1C(=O)Nc1ccccc1 (stereo not drawn) :
A) inactive

Q) Call for entry CCCCCCCCCCCCCC(=S)NCCCC[C@H](NC(=O)OCc1ccccc1)C(=O)Nc1ccccc1 :
A) inactive

Q) Call for entry CC1=NOCC(=O)N1 :
A) inactive

Q) Call for entry CCOC(=O)C(Nc1ccccc1)C(=O)OCC :
A) inactive

Q) Call for entry C=C1NC(=O)C(C(C)CC)NC(=O)C2CSCC(NC(=O)CCC(=O)O)C(=O)NC(Cc3ccccc3)C(=O)NC(C)C(=O)NC(CC(C)CC)C(=O)NC(C(=O)NC(Cc3ccccc3)C(=O)N3CCCC3C(=O)N2)C(C)OC(=O)C(CO)NC(=O)C(C(O)COC)N(C)C(=O)C(C(C)C)NC(=O)C(CC(C)CC)NC1=O (stereo not drawn) :
A) inactive

Q) Call for entry O=C1/C(=C\c2cccn2C(=O)c2ccccc2)c2ccccc2N1c1c(Cl)cccc1Cl :
A) inactive

Q) Call for entry O=C1Nc2ccccc2/C1=C/c1c[nH]c2ccccc12 :
A) inactive

Q) Call for entry CC(=O)OC1Oc2ccccc2-c2oc3nc(=N)n(C)c-3cc21 (stereo not drawn) :
A) inactive

====

System: SK-MEL-28 melanoma
test_name: NCI-60 one-dose screen, 48 h
assay_context: 10 µM unless noted
Compounds without any hit were thinned out: in the full panel of roughly 83,000, 20% have a hit. The source made the active and inactive calls. The calls were made as follows: active = growth percent below 10; inactive = the rest.
Your reply should match one of these outcome classes. 1 for active, -1 for inactive

Q) Call for entry CC(=O)c1c(C)nc(-c2cc(C)cc(Cl)c2)nc1-c1cccc(Oc2ccccc2)c1 :
A) -1

Q) Call for entry Cc1c(O)c(=O)n(-c2ccccc2)n1C :
A) -1

Q) Call for entry Cc1ccc(N=CNN=C(N)N)cc1 :
A) -1

Q) Call for entry Fc1ccc(-c2nnc(N3CCOCC3)c3ccccc23)cc1 :
A) -1

Q) Call for entry OC(c1cc2cc(Cl)ccc2c2cc(C(F)(F)F)ccc12)C1CCCCN1 (stereo not given) :
A) 1

Q) Call for entry CCCCN(CCCC)CCC(=O)c1ccc(OC)c2ccccc12 :
A) -1

Q) Call for entry COc1cc(C2=NOC(c3cc(OC)c(OC)c(OC)c3)C2)ccc1OCCCCOc1cc2c(cc1OC)C(=O)N1CCC[C@H]1C=N2 (stereo not given in full) :
A) 1

Q) Call for entry Cc1cc(O)ccc1C1=NN(c2ccc(S(N)(=O)=O)cc2)C(=O)CC1 :
A) -1

Q) Call for entry C=CCN(CCOC(=O)c1ccc([N+](=O)[O-])cc1)CCOC(=O)c1ccc([N+](=O)[O-])cc1 :
A) -1

Q) Call for entry O=C1C=CC(=O)N1c1cccc(N2C(=O)C=CC2=O)c1 :
A) -1

Q) Call for entry O=C(N=Nc1c(Cl)c(O)c2ccccc2c1O)C(=O)Nc1cccc(C(F)(F)F)c1 :
A) -1

Q) Call for entry Cc1n(Cc2ccc3ccccc3n2)cc[n+]1Cc1ccc2ccccc2c1 :
A) -1

Q) Call for entry C#CC[C@@H]1C[C@]2(C)[C@H]3CC[C@@H]4[C@H]5C(C(=C)C)CC[C@]5(C(=O)NCCCCN)CC[C@@]4(C)[C@]3(C)CC[C@H]2C(C)(C)[C@H]1OC(C)=O (stereo not given in full) :
A) -1

Q) Call for entry O=c1c2sc3ccccc3c2nnn1-c1ccc(F)c(Cl)c1 :
A) -1

Q) Call for entry O=c1cc(-c2ccc3c(c2)OCCO3)oc2cc(Cl)ccc12 :
A) -1

Q) Call for entry CC(OC(=O)Nc1cccc(Cl)c1)C(=O)O (stereo not given) :
A) -1

Q) Call for entry O=S(=O)(NCC[C@@H]1C[C@H]1c1ccc2ccccc2c1)c1ccc(C(F)(F)F)cc1 :
A) -1

Q) Call for entry C#CC[C@@H]1C[C@]2(C)[C@H]3CC[C@@H]4[C@H]5C(C(=C)C)CC[C@]5(C(=O)NCCCCCCCCN)CC[C@@]4(C)[C@]3(C)CC[C@H]2C(C)(C)[C@H]1OC(C)=O (stereo not given in full) :
A) -1

Q) Call for entry COC1CC(N)C2OC(c3ccccc3)OCC2O1 (stereo not given) :
A) -1

Q) Call for entry CCN(CC)Cc1cc(Nc2nc(NC3CCC(N(C)C)CC3)c3ccccc3n2)ccc1OC (stereo not given) :
A) -1

Q) Call for entry CC(C)CC(NC(=O)C(CCCN=C(N)N)NC(=O)OCc1ccccc1)C(=O)NC(CNC(=O)/C=C/c1ccccc1)C(C)C (stereo not given) :
A) -1

Q) Call for entry CC1=C(O)C(=O)C(c2c(C)cc(C)c(Br)c2C)=C(O)C1=O :
A) -1

Q) Call for entry COc1cccc(NC(=O)[C@H](C(C)C)n2c(=O)[nH]c3ccccc3c2=O)c1 :
A) -1

Q) Call for entry COc1ccc2c(c1)CCCC21C(=O)Nc2ccccc21 (stereo not given) :
A) -1

Q) Call for entry Cc1ccc(O)c(Cc2ccccc2)c1 :
A) -1

Q) Call for entry O=C1/C(=C\c2cccn2Cc2ccc(F)cc2)c2ccccc2N1c1c(Cl)cccc1Cl :
A) -1

Q) Call for entry COc1ccc(-c2nsc3c2NC(=O)CC3c2cccc(F)c2)cc1 (stereo not given) :
A) -1

Q) Call for entry C=CCn1c(SCC(=O)Nc2ccc(/C(C)=N\O)cc2)nnc1-c1cc(-c2ccccc2)nc2ccccc12 :
A) -1

Q) Call for entry COc1ccc(/C(=C\c2cc(OC)c(OC)c(OC)c2)C(=O)N2CCNCC2)cc1 :
A) -1

Q) Call for entry Fc1[nH]nc2ccc([C@@H]3Nc4ccc5[nH]ncc5c4[C@H]4C5CCC(C5)[C@@H]34)cc12 (stereo not given in full) :
A) -1

Q) Call for entry CCSc1ccc([C@@H]2[C@@H](N)C(=O)N2c2cc(OC)c(OC)c(OC)c2)cc1 :
A) -1

Q) Call for entry COc1cc(-c2nc(-c3nc4cc(C(=O)c5ccccc5)ccc4[nH]3)cc3c2[nH]c2ccccc23)cc(OC)c1OC :
A) -1

Q) Call for entry COc1ccc(/C=C(/C(=O)N2CCN(c3ccccc3)CC2)c2cc(OC)c(OC)c(OC)c2)cc1N :
A) -1

Q) Call for entry CN(C)c1ccc(C(c2ccccc2)c2ccc(N(C)C)cc2)cc1 :
A) -1

Q) Call for entry COc1ccc(/C=C2\CCCC3=C2N=C2SC(C)=NN2C3c2ccc(OC)c(OC)c2)cc1OC (stereo not given) :
A) -1

Q) Call for entry N=c1n(Cc2ccccc2)c(N)cc(=O)n1Cc1ccccc1 :
A) -1

Q) Call for entry O=C(NNC(=S)Nc1ccccc1)c1ccc(Nc2ncnc3c2cnn3-c2cccc(Br)c2)cc1 :
A) -1

Q) Call for entry CN(C)CCOc1nc2c3cccnc3cc(-c3cccc(Cl)c3)c2c2ncccc12 :
A) 1

Q) Call for entry CC(C)(C)CC(C)(C)NCc1cc(C(C)(C)C)cc(CNC(C)(C)CC(C)(C)C)c1O :
A) -1

Q) Call for entry Nc1c(C(=O)c2ccc(Br)cc2)sc2nc3c(cc12)CCCC3 :
A) -1
